Listing: APOE RNA (% control) Cortex of selected substances
# Tested on: human APOE RNA
# MEASUREMENT PROTOCOL: Duration of action study in APOE C57BL/6NTac-Apoeem7250 knock-in mice (Example 18)
# Type: in vivo
# EXPERIMENTAL CONTEXT: cortex; 285 days post-dose; single ICV bolus 300 μg; APOE knock-in mice; normalized to mouse Ppia; relative to PBS
Strand notation (5' to 3'): a small letter for the sugar, then the base; units joined by * are phosphorothioate-linked, units joined directly phosphodiester-linked; [ ] holds rarer units or linkages, { } end groups; capitals alone tell only the bases. [ms] = mesyl phosphoramidate linkage; e = 2'-O-(2-methoxyethyl) (MOE); k = constrained ethyl (cEt); [5mC] = 5-methylcytosine; d = 2'-deoxy (DNA)
I only need the number, in % control, no unit after it.

Reference set, count: 2
Please report the recorded APOE RNA (% control) Cortex for TezTeoGeoGksTdsGdzAdzAdzTds^mCdsTdsTdsTdsAdzTksTksAesAesAes^mCe (antisense eT[ms]eTeGkG*dT*dG[ms]dA[ms]dA[ms]dT*d[5mC]*dT*dT*dT*dA[ms]kT*kT*eA*eA*eA*e[5mC]) [Compound No. 1809814] .
95

Please report the recorded APOE RNA (% control) Cortex for Aks^mCeoTeoTesGesGksTdsGdzAdzAdzTds^mCdsTdsTdsTdsAdzTksTksAesAe (kA*e[5mC]eTeT*eG*kG*dT*dG[ms]dA[ms]dA[ms]dT*d[5mC]*dT*dT*dT*dA[ms]kT*kT*eA*eA) [Compound No. 1809635] .
67

Further cases:
Please report the recorded APOE RNA (% control) Cortex for Aes^mCeoTeoTesGesGksTdsGdzAdzAdzTds^mCdsTdsTdsTdsAdzTksTksAesAe (eA*e[5mC]eTeT*eG*kG*dT*dG[ms]dA[ms]dA[ms]dT*d[5mC]*dT*dT*dT*dA[ms]kT*kT*eA*eA) [Compound No. 1757576] .
87
